Could you please report measured Ki for the items listed next?
Molecular target: CDK1/CyclinB1 (Homo sapiens, UniProt P06493)
Construct: Wild-type, full length CDK1 in complex with wildtype, full length CyclinB1: Carna Cat #04-102; purchased Carna 04-102
Sequence (P06493 whole entry): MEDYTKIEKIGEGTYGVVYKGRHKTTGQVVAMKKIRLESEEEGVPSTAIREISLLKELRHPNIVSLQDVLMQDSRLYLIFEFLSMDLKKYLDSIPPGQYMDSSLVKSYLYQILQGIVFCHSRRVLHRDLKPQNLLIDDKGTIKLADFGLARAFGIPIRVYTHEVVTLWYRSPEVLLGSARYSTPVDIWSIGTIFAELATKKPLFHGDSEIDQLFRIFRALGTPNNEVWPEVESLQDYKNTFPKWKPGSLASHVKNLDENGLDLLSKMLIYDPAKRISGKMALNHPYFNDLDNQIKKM
Sequence (P14635 whole entry partner): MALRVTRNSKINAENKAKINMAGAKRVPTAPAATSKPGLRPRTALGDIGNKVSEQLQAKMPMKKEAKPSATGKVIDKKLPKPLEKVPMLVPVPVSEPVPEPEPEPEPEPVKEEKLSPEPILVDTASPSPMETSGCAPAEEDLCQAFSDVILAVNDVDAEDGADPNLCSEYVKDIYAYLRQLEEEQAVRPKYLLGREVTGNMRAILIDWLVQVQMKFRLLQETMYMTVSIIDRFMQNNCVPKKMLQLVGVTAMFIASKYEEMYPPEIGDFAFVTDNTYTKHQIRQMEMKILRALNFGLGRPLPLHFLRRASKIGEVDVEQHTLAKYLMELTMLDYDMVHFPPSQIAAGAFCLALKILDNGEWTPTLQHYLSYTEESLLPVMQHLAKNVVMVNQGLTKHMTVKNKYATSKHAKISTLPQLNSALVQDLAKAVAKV
Assay: CDK1/CyclinB1 ChEF Assay (Table A);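 note: Ki reported in nM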
Assay type: biochemical
Settings: read-out: CDK1/CCNB1 ChEF Ki: Average Ki

Example cases with answers are listed next.
{"columns": ["compound", "Ki"],
 "data": [
  ["O=C1NCCOCCNS(=O)(=O)c2ccc(c(F)c2)Nc2cc([nH]n2)[C@H]2CC[C@H](C2)O1 [Compound 89]", "1 to 25 nM"],
  ["O=C1NCCCn2cc(cn2)S(=O)(=O)N2CCC(CC2)Nc2cc([nH]n2)[C@H]2CC[C@H](C2)O1 [Compound 95]", "≥ 100 nM"],
  ["O=C1NCCCCCCNS(=O)(=O)c2ccc(c(F)c2)Nc2cc([nH]n2)[C@H]2CC[C@H](C2)O1 [Compound 91]", "1 to 25 nM"],
  ["CC1(C)CCCNS(=O)(=O)c2ccc(c(F)c2)Nc2cc([nH]n2)[C@H]2CC[C@H](C2)OC(=O)N1 [Compound 101]", "25 to 100 nM"]
]}

Take each entry in turn and give its Ki.
1. O=C1NCCCCCn2cc(cn2)S(=O)(=O)N2CCC(CC2)Nc2cc([nH]n2)[C@H]2CC[C@H](C2)O1 [Compound 96]
2. O=C1NCCCCn2cc(cn2)S(=O)(=O)N2CCC(CC2)Nc2cc([nH]n2)[C@H]2CC[C@H](C2)O1 [Compound 94]

25 to 100 nM
≥ 100 nM

----------
Target: CDK6/CyclinD3 (Homo sapiens, UniProt Q00534)
Construct: Wild-type, full length CDK6 in complex with wildtype, full length CyclinD3: Carna Cat #04-107; purchased Carna 04-107
Sequence (Q00534 whole entry): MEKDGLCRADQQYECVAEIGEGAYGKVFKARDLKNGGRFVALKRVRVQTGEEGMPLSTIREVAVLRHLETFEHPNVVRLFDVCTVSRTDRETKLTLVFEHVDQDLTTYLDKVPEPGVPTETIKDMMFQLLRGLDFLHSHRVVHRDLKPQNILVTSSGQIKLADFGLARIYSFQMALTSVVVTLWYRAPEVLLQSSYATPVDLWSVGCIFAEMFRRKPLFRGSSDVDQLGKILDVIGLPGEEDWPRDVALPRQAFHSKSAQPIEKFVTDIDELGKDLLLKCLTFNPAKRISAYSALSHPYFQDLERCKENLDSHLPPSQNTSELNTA
Sequence (P30281 whole entry partner): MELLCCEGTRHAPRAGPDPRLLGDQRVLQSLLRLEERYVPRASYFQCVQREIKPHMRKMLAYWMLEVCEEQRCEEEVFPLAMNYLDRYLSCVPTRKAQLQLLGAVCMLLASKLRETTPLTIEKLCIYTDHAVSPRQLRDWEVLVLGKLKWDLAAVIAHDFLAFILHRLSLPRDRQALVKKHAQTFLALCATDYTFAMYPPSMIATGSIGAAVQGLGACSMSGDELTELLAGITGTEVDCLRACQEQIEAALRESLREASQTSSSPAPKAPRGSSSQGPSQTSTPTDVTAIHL
Test: CDK6/Cyclin D3 Mobility Shift Assay (Caliper, Table B)
Format: biochemical
Conditions: read-out: CDK6/CCND3 Caliper Ki: Average Ki
Could you please report measured Ki for the items listed next?

Example cases with answers are listed next.
{"columns": ["compound string", "Ki"],
 "data": [
  ["O=C1NCCCCCCNS(=O)(=O)c2ccc(c(F)c2)Nc2cc([nH]n2)[C@H]2CC[C@H](C2)O1", "≥ 100 nM"],
  ["O=C1NCC=CCNS(=O)(=O)c2ccc(c(F)c2)Nc2cc([nH]n2)[C@H]2CC[C@H](C2)O1", "≥ 100 nM"]
]}

Take each entry in turn and give its Ki.
1. O=C1NCCCCCCCNS(=O)(=O)c2ccc(c(F)c2)Nc2cc([nH]n2)[C@H]2CC[C@H](C2)O1
2. O=C1NCCCCNS(=O)(=O)c2ccc(c(F)c2)Nc2cc([nH]n2)[C@H]2CC[C@H](C2)O1

1. 25 to 100 nM
2. 25 to 100 nM

----------
Target: CDK6/CyclinD3 (Homo sapiens)
Construct: Wild-type, full length CDK6 in complex with wildtype, full length CyclinD3: Carna Cat #04-107; purchased Carna 04-107
Test: CDK6/CyclinD3 ChEF Assay (AQT, Table C)
Type: biochemical
Details: read-out: CDK6/CCND3 AQT Ki: Average Ki
pKi: −log10 of the molar value.
Could you please report measured pKi for the items listed next?

{"columns": ["compound", "pKi"],
 "data": [
  ["NS(=O)(=O)c1ccc2cc1OCCCCCNC(=O)O[C@@H]1CC[C@@H](C1)c1cnc(nc1)N2 (stereo in doubt)", "≤ 7.00"]
]}

Could you now consider this next compound?
Any idea what its pKi is? The compound is O=C1NCCCCCCNS(=O)(=O)c2ccc(c(F)c2)Nc2cc([nH]n2)[C@H]2CC[C@H](C2)O1
≤ 7.00

----------
Could you please report measured Ki for the items listed next?
Biological target: CDK2/CyclinA2 (Homo sapiens, UniProt P24941)
Construct: Wild-type, full length CDK2 in complex with wildtype, full length CyclinA2: Carna Cat #04-103; purchased Carna 04-103
Assay: CDK2/Cyclin A2 Mobility Shift Assay (Caliper, Table B)
Type: biochemical
Conditions: Caliper mobility shift, 10xKm; read-out: CDK2/CCNA2 Caliper 10xKm Ki: Average Ki

Example cases with answers are listed next.
{"columns": ["compound string", "target system", "Ki"],
 "data": [
  ["O=C1NCCCn2cc(cn2)S(=O)(=O)N2CCC(CC2)Nc2cc([nH]n2)[C@H]2CC[C@H](C2)O1", "CDK2/CyclinA2 (Homo sapiens, UniProt P24941)", "25 to 100 nM"],
  ["O=C1NCCCCCCOc2cccc(n2)Nc2ncc(cn2)[C@@H]2CC[C@@H](C2)O1", "CDK2/CyclinA2 (Homo sapiens, UniProt P24941)", "25 to 100 nM"],
  ["O=C1NCCCCCCNS(=O)(=O)c2ccc(cc2)Nc2ncc(cn2)[C@@H]2CC[C@@H](C2)O1", "CDK2/CyclinA2 (Homo sapiens, UniProt P24941)", "≥ 100 nM"],
  ["O=C1NCC=CCNS(=O)(=O)c2ccc(c(F)c2)Nc2cc([nH]n2)[C@H]2CC[C@H](C2)O1", "CDK2/CyclinA2 (Homo sapiens, UniProt P24941)", "< 1 nM"]
]}

Take each entry in turn and give its Ki.
1. O=C1NCCCCCOc2cccc(n2)Nc2ncc(cn2)[C@@H]2CC[C@@H](C2)O1
2. O=C1NCCCCOc2cccc(n2)Nc2ncc(cn2)[C@@H]2CC[C@@H](C2)O1
3. O=C1NCCCCNS(=O)(=O)c2ccc(c(F)c2)Nc2cc([nH]n2)[C@H]2CC[C@H](C2)O1
4. CN1CCNC(=O)O[C@@H]2CC[C@@H](C2)c2cc(n[nH]2)Nc2ccc(cc2F)S(=O)(=O)NCC1

≥ 100 nM
25 to 100 nM
< 1 nM
1 to 25 nM

Take each entry in turn and give its Ki.
1. CC1(C)CCCNS(=O)(=O)c2ccc(c(F)c2)Nc2cc([nH]n2)[C@H]2CC[C@H](C2)OC(=O)N1
2. O=C1NCCCNS(=O)(=O)c2ccc(c(F)c2)Nc2cc([nH]n2)[C@H]2CC[C@H](C2)O1

1: 1 to 25 nM; 2: 25 to 100 nM

----------
Target: CDK2/CyclinA2 (Homo sapiens, UniProt P24941)
Construct: Wild-type, full length CDK2 in complex with wildtype, full length CyclinA2: Carna Cat #04-103; purchased Carna 04-103
Assay: CDK2/Cyclin A2 Mobility Shift Assay (Caliper, Table B)
Type: biochemical
Settings: Caliper, selectivity over CDK9
readout name: CDK2/CCNA2 Caliper 10xKm Ki: CDK2/A2 Selectivity over CDK9

{"columns": ["compound string", "reading"],
 "data": [
  ["O=C1NCCCn2cc(cn2)S(=O)(=O)N2CCC(CC2)Nc2cc([nH]n2)[C@H]2CC[C@H](C2)O1", "B (5≤B<10)"],
  ["O=C1NCCCCOc2cccc(n2)Nc2ncc(cn2)[C@@H]2CC[C@@H](C2)O1", "B (5≤B<10)"],
  ["O=C1NCCCCCNS(=O)(=O)c2ccc(c(F)c2)Nc2cc([nH]n2)[C@H]2CC[C@H](C2)O1", "A (A>10)"],
  ["CC1(C)CCCNS(=O)(=O)c2ccc(c(F)c2)Nc2cc([nH]n2)[C@H]2CC[C@H](C2)OC(=O)N1", "A (A>10)"],
  ["O=C1NCCCCCn2cc(cn2)S(=O)(=O)N2CCC(CC2)Nc2cc([nH]n2)[C@H]2CC[C@H](C2)O1", "A (A>10)"],
  ["O=C1NCCCNS(=O)(=O)c2ccc(c(F)c2)Nc2cc([nH]n2)[C@H]2CC[C@H](C2)O1", "A (A>10)"]
]}

Any idea what its CDK2/CCNA2 Caliper 10xKm Ki: CDK2/A2 Selectivity over CDK9 is? The compound is O=C1NCCCCCCn2cc(cn2)S(=O)(=O)N2CCC(CC2)Nc2cc([nH]n2)[C@H]2CC[C@H](C2)O1
A (A>10)

----------
Molecular target: CDK1/CyclinB1 (Homo sapiens)
Construct: Wild-type, full length CDK1 in complex with wildtype, full length CyclinB1: Carna Cat #04-102; purchased Carna 04-102
Assay: CDK1/CyclinB1 ChEF Assay (Table A);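 note: Ki reported in nM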
Format: biochemical
Conditions: read-out: CDK1/CCNB1 ChEF Ki: Average Ki
pKi: −log10 of the molar value.
readout name: pKi

{"columns": ["compound", "pKi"],
 "data": [
  ["O=C1NCCCCCCCNS(=O)(=O)c2ccc(c(F)c2)Nc2cc([nH]n2)[C@H]2CC[C@H](C2)O1 [Compound 92]", "> 9.00"],
  ["O=C1NCCCNS(=O)(=O)c2ccc(c(F)c2)Nc2cc([nH]n2)[C@H]2CC[C@H](C2)O1 [Compound 98]", "≤ 7.00"],
  ["O=C1NCC=CCNS(=O)(=O)c2ccc(c(F)c2)Nc2cc([nH]n2)[C@H]2CC[C@H](C2)O1 [Compound 102]", "7.60 to 9.00"],
  ["CN1CCNC(=O)O[C@@H]2CC[C@@H](C2)c2cc(n[nH]2)Nc2ccc(cc2F)S(=O)(=O)NCC1 [Compound 100]", "7.00 to 7.60"]
]}

Take each entry in turn and give its pKi.
1. O=C1NCCCCCCn2cc(cn2)S(=O)(=O)N2CCC(CC2)Nc2cc([nH]n2)[C@H]2CC[C@H](C2)O1 [Compound 97]
2. O=C1NCCCCNS(=O)(=O)c2ccc(c(F)c2)Nc2cc([nH]n2)[C@H]2CC[C@H](C2)O1 [Compound 99]
3. O=C1NCCCCCNS(=O)(=O)c2ccc(c(F)c2)Nc2cc([nH]n2)[C@H]2CC[C@H](C2)O1 [Compound 90]

7.60 to 9.00
7.60 to 9.00
7.60 to 9.00

Entry source: patent US20260200943A1
